Listing of recorded pIC50 by entry.
tested on: A549 cells [human non small cell lung cancer cell line, expressing mutant K-Ras G12S]; assay: A549 Cell Titer Glo (CTG) Proliferation Assay [Assay 2]; assay type: cell-based; settings: 72 hours incubation
pIC50: −log10 of the molar value.
READOUT TYPE: pIC50

COMPOUND	READOUT TYPE	VALUE
NC(=O)c1c(Nc2ccc(I)cc2F)cc(F)cc1Oc1cccc(NS(N)(=O)=O)c1 [reference compound]	pIC50	6.50
NS(=O)(=O)Nc1cccc(Oc2cc(F)cc(Nc3ccc(I)cc3F)c2NS(=O)(=O)C2CC2)c1	pIC50	8.18
CCS(=O)(=O)Nc1cccc(Oc2cc(F)cc(Nc3ccc(I)cc3F)c2NS(N)(=O)=O)c1	pIC50	7.16
C#Cc1ccc(Nc2cc(F)cc(Oc3cccc(NS(=O)(=O)CC)c3)c2NS(N)(=O)=O)c(F)c1	pIC50	7.06
CCS(=O)(=O)Nc1cccc(Oc2cc(F)cc(Nc3ccc(I)cc3F)c2NS(=O)(=O)CC)c1	pIC50	7.13
CCS(=O)(=O)Nc1cccc(Oc2cc(F)cc(Nc3ccc(I)cc3F)c2NS(=O)(=O)C2CC2)c1	pIC50	7.74
CCS(=O)(=O)Nc1cccc(Oc2cc(F)cc(Nc3ccc(I)cc3F)c2NS(C)(=O)=O)c1	pIC50	7.40
CC(C)S(=O)(=O)Nc1cccc(Oc2cc(F)cc(Nc3ccc(I)cc3F)c2NS(=O)(=O)C2CC2)c1	pIC50	7.44
C#Cc1ccc(Nc2cc(F)cc(Oc3cccc(NS(=O)(=O)CC)c3)c2NS(=O)(=O)C2CC2)c(F)c1	pIC50	6.86
CCS(=O)(=O)Nc1cccc(Oc2cc(F)cc(Nc3ccc(I)cc3F)c2NS(=O)(=O)C(C)C)c1	pIC50	7.03
CCS(=O)(=O)Nc1cccc(Oc2cc(F)cc(Nc3ccc(I)cc3F)c2NS(N)(=O)=O)c1C	pIC50	8.32
